test system: T-47D breast; test: NCI-60 one-dose screen, 48 h; conditions: 10 µM
Compounds without any hit were thinned out: in the full panel of roughly 83,000, 20% have a hit. Activity calls are given as the source filed them. How the source made its calls: active means growth percent below 10; inactive means the rest.
Classes to choose from: active, inactive

The examples below pair each entry with its known result.
• CCCC(=O)c1cc(C)ccc1OC = inactive
• NC(=S)CN1CCOCC1 = inactive
• CCN(CC)CCCC(C)Nc1ccnc(/C=C/c2ccc(Cl)cc2)c1 (centres undefined) = active
• CCCOC(=O)C(O)c1ccccc1 (centres undefined) = inactive

Which result was noted for this compound in the test: CC(=O)Nc1cccc(NC(C)=O)n1
inactive

I'd appreciate the recorded outcome for N#CSc1cc(S(N)(=O)=O)ccc1N from this test.
inactive

Just curious, what result did Nc1ccc(N=Nc2ccc(O)cc2)c(N)n1 get here?
inactive

How was NC(=O)c1ccc(N=C(N)N=C(N)N)cc1 classified in this test?
inactive

Which outcome did this test record for the compound C/C(=N\NC(=O)c1ccccc1N)c1ccccc1O ?
inactive

Test call, this compound: COC(=O)c1cccc(Br)c1
inactive

// outcome(item) with item = CCCCCCCCO
inactive

Outcome? COS(=O)(=O)c1ccc(Br)cc1
inactive

Give the logged outcome of this assay for the following compound: O=C(O)c1cccc([N+](=O)[O-])c1
inactive

====

test system: ACHN renal; assay: NCI-60 one-dose screen, 48 h (100 = growth as untreated, 0 = no growth, -100 = all killed); conditions: 10 µM
This is part of a sample that, as a whole, favours compounds with a hit. Of some 83,000 tested, about 20% had one in any assay.
readout_type: growth (%)
Supply the numeric figure in %, leaving out any unit text.

Look up growth for this compound: O=[N+]([O-])c1cccc(N=Nc2ccc(O)cc2O)c1
78.7

====

Each entry below carries its reported growth.
tested on: SK-MEL-2 melanoma; experiment: NCI-60 one-dose screen, 48 h (100 = growth as untreated, 0 = no growth, -100 = all killed); conditions: 10 µM
Compounds without any hit were thinned out: in the full panel of roughly 83,000, 20% have a hit.
Respond with the bare value in %.

* O=[N+]([O-])c1ccc(O)c(S(=O)(=O)O)c1 | 108
* COc1ccc2c(c1)CCc1c-2n[nH]c1-c1[nH]nc2c1CCc1cc(OC)ccc1-2 | 61.7
* CCc1nc(N)nc(N)c1-c1ccc(Cl)cc1 | 105
* CNC(=S)NC(C)(C)C | 122
* O=C(N/N=C\c1cc(Br)cc(Br)c1O)N/N=C/c1cc(Br)cc(Br)c1O | -23.8
* CCC(O)CC(CC)CO (stereo not given) | 134

Turning now to a further record.
Checklist item: growth tested on SK-MEL-2 melanoma, entry CC(=O)Oc1ccc(Br)cc1C(=O)O , value?
99.8

====

growth overview
system: MALME-3M melanoma; experiment: NCI-60 one-dose screen, 48 h (100 = growth as untreated, 0 = no growth, -100 = all killed); details: 10 µM
About 83,000 compounds went through this panel and 20% of them were active in at least one assay; those are over-represented in the sample as a whole.
# output: bare number, implied unit %

* Cc1cccc(CO)c1 | 104
* COC(=O)/C=C\C(=O)OC | 139
* COC(=O)CCCCC1=CCC2C(=O)C=C(O)C2C1 (stereo not given) | 106
* CCCOC(=O)C(O)c1ccccc1 (stereo not given) | 96.8
* C=CCNC(=O)c1ccc(OC)cc1 | 117
* FC(F)(F)c1ccc2c(c1)N(CCCN1CCN(C3CC3)CC1)c1ccccc1S2 | 96.7
* CN(C)C(=O)Oc1cccc([N+](C)(C)C)c1 | 131
* O=C(O)/C=C/C(=O)NCc1ccccc1 | 99
* CC(=O)OCC1OC(OC2=C(CC=C(C)C)C(=O)c3ccccc3C2=O)C(OC(C)=O)C(OC(C)=O)C1OC(C)=O (stereo not given) | -36.2
* OCC(O)C(O)C(O)C(O)/C=N/O (stereo not given) | 110

Kindly consider the entry below.
Fill blank: measured growth of the molecule CCC(O)CC(CC)CO (stereo not given) is ____.
128

====

tested on: A549/ATCC NSCLC; experiment: NCI-60 one-dose screen, 48 h (100 = growth as untreated, 0 = no growth, -100 = all killed); conditions: 10 µM
This is part of a sample that, as a whole, favours compounds with a hit. Of some 83,000 tested, about 20% had one in any assay.
readout_type: growth (%)
Give just the numeric value; % need not be written.

- CCS(=O)(=O)c1cc(=O)[nH]c(=O)[nH]1: 102
- CCN(CC)C(=O)/C=C(/C)c1ccccc1: 113
- c1ncc2[nH]cnc2n1: 86.7
- OC(c1ccccn1)C(O)c1ccccn1 (configuration not stated): 95.3

Name the recorded growth for Cc1c(O)cccc1O .
122

# lookup: growth of CCN(CC)c1ccc2nc3ccc(=[N+](CC)CC)cc-3oc2c1
18.5

Recorded growth for N#CC(=Nc1cccc(F)c1)C1=C(O)c2ccccc2C1=O , please?
95.6

====

system: OVCAR-4 ovarian; experiment: NCI-60 one-dose screen, 48 h (100 = growth as untreated, 0 = no growth, -100 = all killed); conditions: 10 µM
Compounds without any hit were thinned out: in the full panel of roughly 83,000, 20% have a hit.
readout_type: growth (%)
Please respond with the number in % and leave the unit unwritten.

Below, 4 molecules whose answers are already recorded.
• CC(=O)CC(=O)N(C)C = 101
• O=C1C=C(O)C(=O)C=C1O = 118
• C#CC(C)(O)c1ccc(Cl)cc1 (stereo not drawn) = 102
• Cc1cc(C)c(CC(=O)O)c(C)c1 = 95.1

For the molecule Cc1ccc(C(=O)N/N=C/c2ccc3c(c2)OCO3)cc1 , what growth is on record?
99.5

So what's the measured growth for this one? CCCCC(O)c1ccccc1 (stereo not drawn)
100

Fill in: growth of CCOC(=O)Nc1nn[nH]n1 is ___
111

Fill in: growth of Cc1cccc(C(=O)N(C(C)C)C(C)C)c1 is ___
104

====

As shown below, each of these compounds has a reported growth value.
test system: KM12 colon; test: NCI-60 one-dose screen, 48 h (100 = growth as untreated, 0 = no growth, -100 = all killed); details: 10 µM
About 83,000 compounds went through this panel and 20% of them were active in at least one assay; those are over-represented in the sample as a whole.
Number only, in %; omit the unit.

Known growth results, listed for orientation:
- C/C(=N\NC(=O)c1ccccc1N)c1ccccc1O: 46.3
- O=[N+]([O-])c1ccc(N=Nc2ccc(O)c3ccccc23)cc1: 33.1
- CC(C)=NNc1ccc([N+](=O)[O-])cc1[N+](=O)[O-]: 86.4
- CC(=O)OCC1=CC2OC(=O)C3=COC(OC4OC(CO)C(O)C(O)C4O)C1C32 (stereo not given): 107
- CCCCN(CCCC)CCCO: 104

Would you kindly share the measured growth for CC1(O)OC(COc2ccc(Cl)cc2)COC1O (stereo not given) ?
108

# lookup: growth of CC(=O)N(C)c1ccc([N+](=O)[O-])cc1
114

growth for O=C(CN1CCNCC1)N1CCOCC1 ?
108

// growth lookup, key: CC(=O)/C(Cc1ccccc1)=N/O
105

Which value of growth has been reported for CCNc1nc2c(cnn2C)c(=O)[nH]1 in the records?
108

====

system: 786-0 renal; test: NCI-60 one-dose screen, 48 h (100 = growth as untreated, 0 = no growth, -100 = all killed); settings: 10 µM
Compounds without any hit were thinned out: in the full panel of roughly 83,000, 20% have a hit.
growth values, listed per item
Just the number please, in %, no unit attached.

* Nc1ccc(N)c([N+](=O)[O-])c1 | 118

Suppose we examine the molecule CCOC(=O)c1cc(/C=C/c2ccc(Cl)cc2Cl)on1 ; what growth value has been reported?
-68.6

Please report the recorded growth for CN1C(=O)CN2CCc3ccccc3C2c2cc(Cl)ccc21 (configuration not stated) .
97.4

So what's the measured growth for this one? COc1cccc(COC(=O)Nc2ccccc2)c1OC
98.9

For the molecule COc1ccc(C(=O)C(Br)C(Br)C(=O)O)cc1 (configuration not stated) , what growth is on record?
100

So what's the measured growth for this one? CCOC(=O)CSc1c([N+](=O)[O-])ncn1C
111

====

Reported growth is given for each of the following compounds.
system: SNB-75 CNS; experiment: NCI-60 one-dose screen, 48 h (100 = growth as untreated, 0 = no growth, -100 = all killed); settings: 10 µM
About 83,000 compounds went through this panel and 20% of them were active in at least one assay; those are over-represented in the sample as a whole.
Your answer is read as %, so omit the unit and give the number.

Sample records with growth:
• COC(=O)C(C)Oc1ccc(OC#N)cc1 (centres undefined) = 88.9
• O=C(O)C(Cc1ccccc1)C(=O)O = 95.9

What does the data say about its growth? Entry: CCCCOC(OCCCC)c1ccccc1
88.9

Returns the measured growth for the input compound. Input: NC(=O)NC(=O)c1ccc(Cl)cc1
93.6
